- System: KELLY (Neuroblastoma)
- measurementProtocol: combination Emax (second highest fraction inhibited in the dose matrix, 72 h); higher = more inhibition; extreme values may be limits of the assay
Please provide measured combination Emax for the entries that follow.

Exam item: Item CN(CCO)CC[C@H](CSc1ccccc1)Nc1ccc(S(=O)(=O)NC(=O)c2ccc(N3CCC([C@@H](O)c4ccccc4-c4ccc(Cl)cc4)CC3)cc2)cc1S(=O)(=O)C(F)(F)F [AZD4320] + C[C@@H](Nc1cc(F)cc(F)c1)c1cc(C(=O)N(C)C)cc2c(=O)cc(N3CCOCC3)oc12 [AZD8186] (first compound max 1 µM, 7x7, partner max 3 µM) : provide combination Emax
Marked response: 0.7

Exam item: Look up and report measured combination Emax for this entry: C=CCn1c(=O)c2cnc(Nc3ccc(N4CCN(C)CC4)cc3)nc2n1-c1cccc(C(C)(C)O)n1 [AZD1775] + C[C@@H]1COCCN1C2=NC(=NC(=C2)C3(CC3)[S@](=N)(=O)C)C4=C5C=CNC5=NC=C4 [AZD6738] (first compound max 1 µM, partner max 10 µM)
Marked response: 1

Exam item: Provide combination Emax value for the following molecule: Cc1cc2ncnn2cc1Nc1ncc2c(n1)n(C1CCOCC1)c(=O)n2C [AZD7648] + COc1cc([C@@H]2c3cc4c(cc3[C@@H](O[C@@H]3O[C@@H]5CO[C@@H](C)O[C@H]5[C@H](O)[C@H]3O)[C@H]3COC(=O)[C@H]23)OCO4)cc(OC)c1O [Etoposide] (first compound max 10 µM, 7x7, partner max 10 µM)
Marked response: 0.793

###

- System: HCC-78 (Lung Adenocarcinoma)
- measurementProtocol: combination Emax (second highest fraction inhibited in the dose matrix, 72 h); higher = more inhibition; extreme values may be limits of the assay
Field: combination Emax. Provide a value for each of the molecules that follow.
Hey, just send me the number, nothing else.

Exam item: State its combination Emax: CC1(C)CCC(CN2CCN(c3ccc(C(=O)NS(=O)(=O)c4ccc(NCC5CCOCC5)c([N+](=O)[O-])c4)c(Oc4cnc5[nH]ccc5c4)c3)CC2)=C(c2ccc(Cl)cc2)C1 [Venetoclax] + COc1cc(Nc2ncc3c(n2)-c2ccc(Cl)cc2C(c2c(F)cccc2OC)=NC3)ccc1C(=O)O [Alisertib] (first compound max 1 µM, 7x7, partner max 10 µM)
Marked response: 0.475

Exam item: Give the reported value of combination Emax for this record: Cc1cc2ncnn2cc1Nc1ncc2c(n1)n(C1CCOCC1)c(=O)n2C [AZD7648] + C=CCn1c(=O)c2cnc(Nc3ccc(N4CCN(C)CC4)cc3)nc2n1-c1cccc(C(C)(C)O)n1 [AZD1775] (first compound max 10 µM, partner max 1 µM)
Marked response: 0.432

Exam item: # return recorded combination Emax for entry COc1nnc2ccc(N3CCC(c4ccc(OCCN5CCN(C)C(=O)[C@H]5C)cc4)CC3)nn12 [AZD5153] + Cn1cnc2c(F)c(Nc3ccc(Br)cc3Cl)c(C(=O)NOCCO)cc21 [Selumetinib] (first compound max 1 µM, 7x7, partner max 10 µM)
Marked response: 0.451

Exam item: Specify measured combination Emax for CS(=O)(=O)CCNCc1ccc(-c2ccc3ncnc(Nc4ccc(OCc5cccc(F)c5)c(Cl)c4)c3c2)o1 [Lapatinib] + NC1(c2ccc(-c3nc4ccn5c(=O)[nH]nc5c4cc3-c3ccccc3)cc2)CCC1 [MK-2206] (first compound max 10 µM, 7x7, partner max 10 µM) .
Marked response: 0.264

Exam item: Fill in combination Emax for record COc1cc2c(cc1OCCCCCOc1cc3c(cc1OC)C(=O)N1C=C(C)C[C@H]1C=N3)N=C[C@@H]1CC(C)=CN1C2=O [SG3199] + O=C(c1cc(Cc2n[nH]c(=O)c3ccccc23)ccc1F)N1CCN(C(=O)C2CC2)CC1 [Olaparib] (first compound max 0.001 µM, 7x7, partner max 10 µM)
Marked response: 0.101

Exam item: Identify measured combination Emax associated with Cc1c2c(nn1C)CSCc1cc(n(C)n1)CSc1cc(c3ccccc3c1)OCCCc1c(C(=O)O)n(C)c3c-2c(Cl)ccc13 [AZD5991] + CC1(C)CCC(CN2CCN(c3ccc(C(=O)NS(=O)(=O)c4ccc(NCC5CCOCC5)c([N+](=O)[O-])c4)c(Oc4cnc5[nH]ccc5c4)c3)CC2)=C(c2ccc(Cl)cc2)C1 [Venetoclax] (first compound max 1 µM, 7x7, partner max 1 µM)
Marked response: 0.158

Exam item: Annotate the molecule Cc1c2c(nn1C)CSCc1cc(n(C)n1)CSc1cc(c3ccccc3c1)OCCCc1c(C(=O)O)n(C)c3c-2c(Cl)ccc13 [AZD5991] + C[C@@H]1COCCN1C2=NC(=NC(=C2)C3(CC3)[S@](=N)(=O)C)C4=C5C=CNC5=NC=C4 [AZD6738] (first compound max 1 µM, 7x7, partner max 10 µM) with its measured combination Emax.
Marked response: 0.544

###

- Test system: ES4 (Ewing's Sarcoma);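 further: after 72 h of two-drug dosing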
- measurementProtocol: Bliss excess, mean over the matrix (fraction); higher = more synergy
I'd appreciate it if you could supply Bliss excess values for the items below.
Respond using a number only.

Exam item: Report Bliss excess from ES4 (Ewing's Sarcoma) testing of CCN(CCO)CCCOc1ccc2c(Nc3cc(CC(=O)Nc4cccc(F)c4)[nH]n3)ncnc2c1 [AZD2811] + O=C(c1cc(Cc2n[nH]c(=O)c3ccccc23)ccc1F)N1CCN(C(=O)C2CC2)CC1 [Olaparib] (first compound max 1 µM, 7x7, partner max 10 µM)
Marked response: -0.0138

Exam item: Please respond with reported Bliss excess (system ES4 (Ewing's Sarcoma)) for CC1(C)CCC(CN2CCN(c3ccc(C(=O)NS(=O)(=O)c4ccc(NCC5CCOCC5)c([N+](=O)[O-])c4)c(Oc4cnc5[nH]ccc5c4)c3)CC2)=C(c2ccc(Cl)cc2)C1 [Venetoclax] + C1CN(CCC1(C(=O)N[C@@H](CCO)C2=CC=C(C=C2)Cl)N)C3=NC=NC4=C3C=CN4 [Capivasertib] (first compound max 1 µM, 7x7, partner max 3 µM) .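 Further: after 72 h of two-drug dosing.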
Marked response: -0.0231

Exam item: Provide measured Bliss excess on ES4 (Ewing's Sarcoma) for CN(C)CCCOc1ccc(-c2ccc3ncc4c(c3c2)n(C2CCOCC2)c(=O)n4C)cn1 [AZD0156] + O=C(c1cc(Cc2n[nH]c(=O)c3ccccc23)ccc1F)N1CCN(C(=O)C2CC2)CC1 [Olaparib] (first compound max 3 µM, partner max 3 µM) please.
Marked response: 0.116

Exam item: // fetch Bliss excess; item: COc1cccc(OCCCN)c1-c1cc(Nc2cnc(C#N)cn2)n[nH]1 [Prexasertib] + C[C@@H]1COCCN1C2=NC(=NC(=C2)C3(CC3)[S@](=N)(=O)C)C4=C5C=CNC5=NC=C4 [AZD6738] (first compound max 1 µM, 7x7, partner max 10 µM) ; system: ES4 (Ewing's Sarcoma);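 further: after 72 h of two-drug dosing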
Marked response: -0.0489

Exam item: GET Bliss excess | system: ES4 (Ewing's Sarcoma) | item: Cc1c2c(nn1C)CSCc1cc(n(C)n1)CSc1cc(c3ccccc3c1)OCCCc1c(C(=O)O)n(C)c3c-2c(Cl)ccc13 [AZD5991] + C[C@@H](Nc1cc(F)cc(F)c1)c1cc(C(=O)N(C)C)cc2c(=O)cc(N3CCOCC3)oc12 [AZD8186] (first compound max 1 µM, 7x7, partner max 3 µM);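 further: after 72 h of two-drug dosing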
Marked response: -0.0286

Exam item: Give Bliss excess for this entry on ES4 (Ewing's Sarcoma): CC1(C)CCC(CN2CCN(c3ccc(C(=O)NS(=O)(=O)c4ccc(NCC5CCOCC5)c([N+](=O)[O-])c4)c(Oc4cnc5[nH]ccc5c4)c3)CC2)=C(c2ccc(Cl)cc2)C1 [Venetoclax] + CCN(CCO)CCCOc1ccc2c(Nc3cc(CC(=O)Nc4cccc(F)c4)[nH]n3)ncnc2c1 [AZD2811] (first compound max 1 µM, 7x7, partner max 1 µM)
Marked response: -0.029

Exam item: Fill: Bliss excess (ES4 (Ewing's Sarcoma)) for this molecule COc1nnc2ccc(N3CCC(c4ccc(OCCN5CCN(C)C(=O)[C@H]5C)cc4)CC3)nn12 [AZD5153] + CN(CC[C@H](CSC1=CC=CC=C1)NC2=C(C=C(C=C2)S(=O)(=O)NC(=O)C3=CC=C(C=C3)N4CCC(CC4)[C@H](C5=CC=CC=C5C6=CC=C(C=C6)Cl)O)S(=O)(=O)C(F)(F)F)CCO [AZD4320] (first compound max 1 µM, 7x7, partner max 1 µM)
Marked response: -0.0136

###

Assign combination Emax to each entry below.
- Test system: NB10 (Neuroblastoma)
- measurementProtocol: combination Emax (second highest fraction inhibited in the dose matrix, 72 h); higher = more inhibition; extreme values may be limits of the assay
A bare number is all that is needed in reply.

Exam item: In one line, give reported combination Emax of the entry C[C@@H](Nc1cc(F)cc(F)c1)c1cc(C(=O)N(C)C)cc2c(=O)cc(N3CCOCC3)oc12 [AZD8186] + CC(=O)c1c(C)c2cnc(Nc3ccc(N4CCNCC4)cn3)nc2n(C2CCCC2)c1=O [Palbociclib] (first compound max 10 µM, 7x7, partner max 10 µM) .
Marked response: 0.403

Exam item: Answer with the recorded combination Emax of CC1(C)CCC(CN2CCN(c3ccc(C(=O)NS(=O)(=O)c4ccc(NCC5CCOCC5)c([N+](=O)[O-])c4)c(Oc4cnc5[nH]ccc5c4)c3)CC2)=C(c2ccc(Cl)cc2)C1 [Venetoclax] + C[C@@H]1COCCN1C2=NC(=NC(=C2)C3(CC3)[S@](=N)(=O)C)C4=C5C=CNC5=NC=C4 [AZD6738] (first compound max 1 µM, 7x7, partner max 10 µM) only.
Marked response: 0.849

Exam item: State, in one line, measured combination Emax of COc1nnc2ccc(N3CCC(c4ccc(OCCN5CCN(C)C(=O)[C@H]5C)cc4)CC3)nn12 [AZD5153] + CCN(CCO)CCCOc1ccc2c(Nc3cc(CC(=O)Nc4cccc(F)c4)[nH]n3)ncnc2c1 [AZD2811] (first compound max 1 µM, 7x7, partner max 1 µM)
Marked response: 0.571

Exam item: Name the recorded combination Emax of the compound listed here: Cc1c2c(nn1C)CSCc1cc(n(C)n1)CSc1cc(c3ccccc3c1)OCCCc1c(C(=O)O)n(C)c3c-2c(Cl)ccc13 [AZD5991] + Cn1cnc2c(F)c(Nc3ccc(Br)cc3Cl)c(C(=O)NOCCO)cc21 [Selumetinib] (first compound max 1 µM, 7x7, partner max 3 µM)
Marked response: 0.396

Exam item: Determine its reported combination Emax: Cc1c2c(nn1C)CSCc1cc(n(C)n1)CSc1cc(c3ccccc3c1)OCCCc1c(C(=O)O)n(C)c3c-2c(Cl)ccc13 [AZD5991] + C1CN(CCC1(C(=O)N[C@@H](CCO)C2=CC=C(C=C2)Cl)N)C3=NC=NC4=C3C=CN4 [Capivasertib] (first compound max 1 µM, 7x7, partner max 3 µM)
Marked response: 0.194

Exam item: Report combination Emax for Cc1cc2ncnn2cc1Nc1ncc2c(n1)n(C1CCOCC1)c(=O)n2C [AZD7648] + C=CCn1c(=O)c2cnc(Nc3ccc(N4CCN(C)CC4)cc3)nc2n1-c1cccc(C(C)(C)O)n1 [AZD1775] (first compound max 10 µM, partner max 1 µM)
Marked response: 0.594

Exam item: Give me measured combination Emax, please, for this compound: CN(CCO)CC[C@H](CSc1ccccc1)Nc1ccc(S(=O)(=O)NC(=O)c2ccc(N3CCC([C@@H](O)c4ccccc4-c4ccc(Cl)cc4)CC3)cc2)cc1S(=O)(=O)C(F)(F)F [AZD4320] + C=CCn1c(=O)c2cnc(Nc3ccc(N4CCN(C)CC4)cc3)nc2n1-c1cccc(C(C)(C)O)n1 [AZD1775] (first compound max 1 µM, partner max 1 µM)
Marked response: 0.493

Exam item: Give combination Emax for COc1cccc2c1C(=O)c1c(O)c3c(c(O)c1C2=O)C[C@@](O)(C(=O)CO)C[C@@H]3O[C@H]1C[C@H](N)[C@H](O)[C@H](C)O1 [Doxorubicin] + Cc1cc2ncnn2cc1Nc1ncc2c(n1)n(C1CCOCC1)c(=O)n2C [AZD7648] (first compound max 1 µM, 7x7, partner max 10 µM)
Marked response: 0.863

Exam item: Specify combination Emax for Cn1cnc2c(F)c(Nc3ccc(Br)cc3Cl)c(C(=O)NOCCO)cc21 [Selumetinib] + CCN(CCO)CCCOc1ccc2c(Nc3cc(CC(=O)Nc4cccc(F)c4)[nH]n3)ncnc2c1 [AZD2811] (first compound max 10 µM, 7x7, partner max 1 µM) and stop.
Marked response: 0.397

Exam item: Please supply the value of reported combination Emax for the item C=CCn1c(=O)c2cnc(Nc3ccc(N4CCN(C)CC4)cc3)nc2n1-c1cccc(C(C)(C)O)n1 [AZD1775] + Nc1ccn([C@@H]2O[C@H](CO)[C@@H](O)C2(F)F)c(=O)n1 [Gemcitabine] (first compound max 1 µM, partner max 0.3 µM)
Marked response: 0.933

Exam item: Answer with the recorded combination Emax of NC1(C(=O)N[C@@H](CCO)c2ccc(Cl)cc2)CCN(c2ncnc3[nH]ccc23)CC1 [Capivasertib] + C[C@@H]1COCCN1C2=NC(=NC(=C2)C3(CC3)[S@](=N)(=O)C)C4=C5C=CNC5=NC=C4 [AZD6738] (first compound max 10 µM, 7x7, partner max 10 µM) only.
Marked response: 0.811

Exam item: // fetch combination Emax given entry NC1(C(=O)N[C@@H](CCO)c2ccc(Cl)cc2)CCN(c2ncnc3[nH]ccc23)CC1 [Capivasertib] + CC(C)n1c(=O)n(C)c2cnc3cc(F)c(-c4ccc(OCCCN5CCCCC5)nc4)cc3c21 [AZD1390] (first compound max 10 µM, 7x7, partner max 0.3 µM)
Marked response: 0.221

Exam item: Provide combination Emax value for the following compound: COc1cccc(OCCCN)c1-c1cc(Nc2cnc(C#N)cn2)n[nH]1 [Prexasertib] + Cc1cc2ncnn2cc1Nc1ncc2c(n1)n(C1CCOCC1)c(=O)n2C [AZD7648] (first compound max 1 µM, 7x7, partner max 10 µM)
Marked response: 0.918

Exam item: Write down combination Emax measured for item CC1(C)CCC(CN2CCN(c3ccc(C(=O)NS(=O)(=O)c4ccc(NCC5CCOCC5)c([N+](=O)[O-])c4)c(Oc4cnc5[nH]ccc5c4)c3)CC2)=C(c2ccc(Cl)cc2)C1 [Venetoclax] + C1CN(CCC1(C(=O)N[C@@H](CCO)C2=CC=C(C=C2)Cl)N)C3=NC=NC4=C3C=CN4 [Capivasertib] (first compound max 1 µM, 7x7, partner max 3 µM)
Marked response: 0.139
